Target: T1, human ST2L extracellular domain with C-terminal His6 tag (human, UniProt Q01638 19-328)
T1 construct: also called huST2L-ECD; ST2L-ECD
T1 sequence: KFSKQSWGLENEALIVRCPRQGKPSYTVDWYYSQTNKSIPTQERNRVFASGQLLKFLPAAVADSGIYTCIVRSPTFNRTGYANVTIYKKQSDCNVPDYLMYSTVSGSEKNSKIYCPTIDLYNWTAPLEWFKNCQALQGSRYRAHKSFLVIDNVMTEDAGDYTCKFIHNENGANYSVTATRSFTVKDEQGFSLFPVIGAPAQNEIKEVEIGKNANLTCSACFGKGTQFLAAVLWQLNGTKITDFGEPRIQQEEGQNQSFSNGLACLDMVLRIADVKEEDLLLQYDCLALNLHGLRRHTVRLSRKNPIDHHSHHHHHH
Test: ProteOn SPR, mAb captured, ST2L-ECD in solution
outcome-measure: koff
Kindly write the number and append the unit.

1) STLM192 (antibody, V domains shown, C2494 HFA mAb: VH STLH195 + VL STLL275 (L5)) VH: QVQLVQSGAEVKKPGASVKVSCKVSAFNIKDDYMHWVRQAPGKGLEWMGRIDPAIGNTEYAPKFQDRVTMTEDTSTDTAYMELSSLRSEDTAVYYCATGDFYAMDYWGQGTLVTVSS VL: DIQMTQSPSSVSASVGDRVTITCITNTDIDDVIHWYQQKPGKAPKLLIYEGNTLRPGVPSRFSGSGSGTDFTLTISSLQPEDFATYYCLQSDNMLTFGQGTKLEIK ... 0.00885 s⁻¹
2) STLM197 (antibody, V domains shown, C2494 HFA mAb: VH STLH194 (IGHV1-f*01) + VL STLL280 (O12b)) VH: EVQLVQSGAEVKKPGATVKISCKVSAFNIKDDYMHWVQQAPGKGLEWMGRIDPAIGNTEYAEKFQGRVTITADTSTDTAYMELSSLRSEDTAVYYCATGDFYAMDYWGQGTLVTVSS VL: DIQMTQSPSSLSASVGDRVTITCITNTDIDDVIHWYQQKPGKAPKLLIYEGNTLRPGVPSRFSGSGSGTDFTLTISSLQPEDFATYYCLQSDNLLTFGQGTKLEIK ... 0.00162 s⁻¹

Now consider the entry below.
Note koff for the binder shown: STLM187 (antibody, V domains shown, C2494 HFA mAb: VH STLH195 (IGHV1-24*01) + VL STLL280 (O12b)) VH: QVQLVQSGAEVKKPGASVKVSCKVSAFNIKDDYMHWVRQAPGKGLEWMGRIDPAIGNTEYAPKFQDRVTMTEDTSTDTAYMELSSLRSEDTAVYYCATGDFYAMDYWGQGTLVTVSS VL: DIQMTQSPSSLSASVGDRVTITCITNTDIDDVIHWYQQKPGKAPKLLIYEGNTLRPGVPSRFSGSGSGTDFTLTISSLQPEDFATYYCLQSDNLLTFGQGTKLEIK
0.0159 s⁻¹

Numbers sourced from patent US20170066831A1.
